- TEST TARGET: Bruton's Tyrosine Kinase (inactivated state) (Homo sapiens (Human), UniProt Q06187)
- Sequence (Q06187 whole entry): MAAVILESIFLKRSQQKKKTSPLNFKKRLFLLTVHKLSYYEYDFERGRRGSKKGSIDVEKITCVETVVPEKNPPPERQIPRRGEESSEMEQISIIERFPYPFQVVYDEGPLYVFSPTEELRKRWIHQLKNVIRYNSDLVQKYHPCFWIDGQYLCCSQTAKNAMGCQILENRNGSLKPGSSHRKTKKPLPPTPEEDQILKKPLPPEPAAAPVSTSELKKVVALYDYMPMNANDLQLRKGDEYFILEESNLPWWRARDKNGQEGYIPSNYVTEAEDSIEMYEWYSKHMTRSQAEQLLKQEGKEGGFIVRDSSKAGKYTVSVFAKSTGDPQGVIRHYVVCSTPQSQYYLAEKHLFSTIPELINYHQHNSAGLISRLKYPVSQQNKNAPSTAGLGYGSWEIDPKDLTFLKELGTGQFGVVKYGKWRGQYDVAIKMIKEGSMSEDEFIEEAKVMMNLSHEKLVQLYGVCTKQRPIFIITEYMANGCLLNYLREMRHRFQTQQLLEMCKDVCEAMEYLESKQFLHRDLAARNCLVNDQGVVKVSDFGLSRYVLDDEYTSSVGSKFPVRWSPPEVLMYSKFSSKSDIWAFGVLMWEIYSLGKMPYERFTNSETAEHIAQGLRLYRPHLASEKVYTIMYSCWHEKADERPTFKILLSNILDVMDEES
- ASSAY NOTES: Bruton's Tyrosine Kinase (BTK) Inhibition TR-FRET (Time Resolved FRET) competition assay
- TEST PARAMETERS: BTK-Eu / Kinase Tracer 178 competition, incubated 18-24 h at 14° C.
MEASURED ENDPOINT: IC50 (µM)
Numbers only, in µM.

Worked examples, 5 compounds total:
>  <COMPOUND>
CC(C)(C)c1cc(F)c2c(=O)n(Cc3ccc(-c4cc[nH]c(=O)c4)cc3)ncc2c1 [Compound I-1]

>  <READING UNIT>
µM

>  <IC50>
3.32

$$$$
>  <COMPOUND>
Cn1cc(-c2cc(-c3ccc(CN4Cc5cc(C(C)(C)C)sc5C4=O)c(F)c3)cc(=O)[nH]2)cn1 [Compound I-10]

>  <READING UNIT>
µM

>  <IC50>
0.00711

$$$$
>  <COMPOUND>
Cc1c(NC(=O)c2ccc(C(C)(C)C)cc2)cccc1-c1cc[nH]c(=O)c1 [Compound I-7]

>  <READING UNIT>
µM

>  <IC50>
6.91

$$$$
>  <COMPOUND>
CC(C)(C)c1cc(F)c2c(=O)n(Cc3ccc(-c4cc[nH]c(=O)c4)cc3F)ncc2c1 [Compound I-2]

>  <READING UNIT>
µM

>  <IC50>
0.983

$$$$
>  <COMPOUND>
Cn1cc(-c2cc(-c3ccc(Cn4ncc5cc(C(C)(C)C)cc(F)c5c4=O)c(F)c3)cc(=O)[nH]2)cn1 [Compound I-6]

>  <READING UNIT>
µM

>  <IC50>
0.0142

$$$$

Give me IC50 for each of these compounds, listed below.
1. CC(C)(C)c1cc(F)c2c(=O)n(Cc3ccc(-c4cc[nH]c(=O)c4)cc3CO)ncc2c1 [Compound I-5]
2. CC(C)(C)c1cc(F)c2c(=O)n(Cc3cc(CO)c(-c4cc[nH]c(=O)c4)cc3F)ncc2c1 [Compound I-9]
3. CC(C)(C)c1cc(F)c2c(=O)n(Cc3c(F)cc(-c4cc[nH]c(=O)c4)cc3F)ncc2c1 [Compound I-4]
4. CC(C)(C)c1cc(F)c2c(=O)n(-c3cccc(-c4cc[nH]c(=O)c4)c3CO)ncc2c1 [Compound I-3]

Response line:
1: 3.14; 2: 52.3; 3: 13.3; 4: 0.366

Source of measurements: patent US9458105B2
